Origin of measurements: patent US20210340231A1

I'd be grateful if you could share measured kon for these entries.
- target-of-assay: T1, CTNI quality control recombinant protein (PK2-CTNI-1, 170120, produced by the applicant) (human, UniProt P19429 2-210, limits assumed)
- T1 construct: also called cardiac troponin I
- T1 sequence (P19429 2-210 limits assumed): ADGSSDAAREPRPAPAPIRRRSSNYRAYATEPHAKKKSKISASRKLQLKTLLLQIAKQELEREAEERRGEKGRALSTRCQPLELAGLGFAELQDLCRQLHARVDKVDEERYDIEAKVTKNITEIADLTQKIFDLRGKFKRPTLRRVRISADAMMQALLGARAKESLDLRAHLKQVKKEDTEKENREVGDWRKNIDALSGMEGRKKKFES
- assay-text: AMC sensor kinetics, antibody captured, cTnI analyte
One number for each entry, in M⁻¹ s⁻¹.

Please state kon for every binder in the list that follows.
1. Mutation 1-49 (antibody, V domains shown, built as for Mutation 1) VH: EVQLQQSGAELVKPGASVKLSCTASGFNIKDYYMHWMKQRTEQGLDWIGRIDPEDAETRYAPEFQGKATITADTSSNTAYLQLSTLTSEDTAVYYCARYYSSYLPFVYWGQGTLVTASA VL: DVVMTQTPLSLSVSLGDQASISCRSSQSILYSNRHTYLHWYLQKPGQSPKLLIFQLSNRFSGVPDRFSGSGSGTDFTLKINRVEAEDLGVYFCSQSTHIPYTFGSGTKLEIKR
2. Mutation 1-26 (antibody, V domains shown, built as for Mutation 1) VH: EVQLQQSGAELVKPGASVKLSCTASGFNIKDYFMHWMKQRTEQGLDWIGRIDPEDGETKYAPEFQGKATITADTSSNTAYLQLSTLTSEDTAVYYCARYYSSYLPFVYWGQGTLVTASA VL: DVVMTQTPLSLSVSLGDQASISCRSSQSILYSNRHTYLHWYLQKPGQSPKLLIFQLSNRFSGVPDRFSGSGSGTDFTLKINRVEAEDLGVYFCSQSTHLPFTFGSGTKLEIKR

RESULT:
1. 553000
2. 333000
